- Tested system: ZCCHC4_24-513 (Homo sapiens, UniProt Q9H5U6, H343A)
- Construct: residues 24-513; His6-SUMO tag cleaved by ULP1; E. coli BL21(DE3) RIL; monomer in solution
- Sequence (Q9H5U6 24-513 H343A): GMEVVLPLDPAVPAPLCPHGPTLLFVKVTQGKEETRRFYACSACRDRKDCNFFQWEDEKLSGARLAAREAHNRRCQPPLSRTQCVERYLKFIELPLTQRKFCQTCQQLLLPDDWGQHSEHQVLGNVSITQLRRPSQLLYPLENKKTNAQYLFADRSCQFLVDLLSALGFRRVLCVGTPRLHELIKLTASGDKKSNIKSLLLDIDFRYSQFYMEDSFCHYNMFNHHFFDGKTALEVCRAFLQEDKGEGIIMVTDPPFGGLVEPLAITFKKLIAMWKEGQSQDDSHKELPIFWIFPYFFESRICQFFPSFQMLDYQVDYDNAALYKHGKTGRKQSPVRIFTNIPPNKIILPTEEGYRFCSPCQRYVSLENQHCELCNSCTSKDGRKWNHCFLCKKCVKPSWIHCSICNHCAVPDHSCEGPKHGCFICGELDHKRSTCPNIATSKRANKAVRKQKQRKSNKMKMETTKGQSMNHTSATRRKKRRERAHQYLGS
- Assay info: isothermal titration calorimetry
Readout type: pKd
Please express pKd as -log10 of the molar concentration.

Entry C[S+](CC[C@H](N)C(=O)O)C[C@H]1O[C@@H](n2cnc3c(N)ncnc32)[C@H](O)[C@@H]1O (stereo partly shown) — recorded pKd = 5.80
